Source listed as patent US20210107981A1.

- target_desc: T1, Human PD-1 (ACROBiosystems, Inc., Catalog No. PD1-H5221) (human, UniProt Q15116 25-167)
- T1 construct: Bought recombinant protein; also called huPD1-His; PD-1-his; not shown: His tag of the bought protein (huPD1-His)
- experimental_protocol: SPR (Biacore), scFv captured on anti-FLAG, PD-1 as analyte
outcome_measure: Kd

[[record]]
binder = "h4B10-3 (VH3-15-Vκ4-1) scFv (scFv, Whole scFv chain with FlagHis tag) scFv: MEVQLVESGGGLVKPGGSLRLSCAASGFTFSTYGMSWVRQAPGKGLEWVATISGGGSNTYYSDSVKGRFTISRDDSKNTLYLQMNSLKTEDTAVYYCARQRDSAWFASWGQGTLVTVSSGGGGSGGGGSGGGGSDIVMTQSPDSLAVSLGERATINCRASENVDDYGVSFMNWYQQKPGQPPKLLIYPASNQGSGVPDRFSGSGSGTDFTLTISSLQAEDVAVYYCQQSKEVPWTFGGGTKLEIKGSGDYKDDDDKGSGHHHHHH"
obs_value = "1.2 nM"

